Reference for the values: ChEMBL document CHEMBL1806414

tested on: Mus musculus; test: Anticonvulsant activity in Kunming mouse assessed as protection against maximal electric shock-induced seizures at 30 mg/kg, ip measured after 0.5 hrs; assay type: functional, organism-based; set-up: dose 30 mg/kg
The source made the active and inactive calls. No cut-off for these calls is given here.
Possible outcomes: active, inactive

[[record]]
compound = "O=C1CC(c2ccccc2Cl)n2c(nc3ccccc32)N1 (stereo not drawn)"
class_label = "inactive"

[[record]]
compound = "O=C1CC(c2ccccc2Cl)n2ccnc2N1 (stereo not drawn)"
class_label = "inactive"

[[record]]
compound = "O=C1CC(c2ccc(Br)cc2)n2ncnc2N1 (stereo not drawn)"
class_label = "inactive"

[[record]]
compound = "CCCCCCN1C(=O)CC(c2ccccc2)n2ncnc21 (stereo not drawn)"
class_label = "inactive"

[[record]]
compound = "Cc1ccc(C2CC(=O)Nc3ncnn32)cc1 (stereo not drawn)"
class_label = "inactive"

[[record]]
compound = "O=C1CC(c2ccccc2Br)n2ncnc2N1 (stereo not drawn)"
class_label = "active"

[[record]]
compound = "COc1ccccc1C1CC(=O)Nc2ncnn21 (stereo not drawn)"
class_label = "inactive"

[[record]]
compound = "COc1ccc(C2CC(=O)Nc3ncnn32)cc1 (stereo not drawn)"
class_label = "inactive"

[[record]]
compound = "O=C1CC(c2ccccc2Cl)n2ncnc2N1 (stereo not drawn)"
class_label = "active"

[[record]]
compound = "O=C1CC(c2ccccc2Br)n2c(nc3ccccc32)N1 (stereo not drawn)"
class_label = "inactive"

[[record]]
compound = "O=C1CC(c2ccccc2)n2ncnc2N1Cc1ccccc1 (stereo not drawn)"
class_label = "inactive"

[[record]]
compound = "O=C1CC(c2cccc(F)c2)n2ncnc2N1 (stereo not drawn)"
class_label = "inactive"

[[record]]
compound = "CN1C(=O)CC(c2ccccc2)n2ncnc21 (stereo not drawn)"
class_label = "inactive"


* * *

assay: Neurotoxicity in ip dosed Kunming mouse by rotarod test; type: toxicity, organism-based; details: in vivo
Here the recorded TD50 is given for each entry.
Measurement kind: TD50

[[record]]
molecule = "O=C1CC(c2ccccc2)n2ccnc2N1 (stereo not drawn)"
measurement_kind = "TD50"
reading = "458 mg/kg"

[[record]]
molecule = "O=C1CC(c2ccccc2Br)n2ncnc2N1 (stereo not drawn)"
measurement_kind = "TD50"
reading = "685 mg/kg"

[[record]]
molecule = "O=C1CC(c2ccccc2F)n2ccnc2N1 (stereo not drawn)"
measurement_kind = "TD50"
reading = "387 mg/kg"

[[record]]
molecule = "O=C1CC(c2ccccc2Cl)n2ncnc2N1 (stereo not drawn)"
measurement_kind = "TD50"
reading = "465 mg/kg"

[[record]]
molecule = "O=C1CC(c2ccccc2)n2nccc2N1 (stereo not drawn)"
measurement_kind = "TD50"
reading = "118 mg/kg"

[[record]]
molecule = "O=C1CC(c2ccccc2Cl)n2nccc2N1 (stereo not drawn)"
measurement_kind = "TD50"
reading = "94.7 mg/kg"

[[record]]
molecule = "O=C1CC(c2cccc(Br)c2)n2ncnc2N1 (stereo not drawn)"
measurement_kind = "TD50"
reading = "592 mg/kg"

[[record]]
molecule = "O=C1CC(c2ccccc2)n2ncnc2N1 (stereo not drawn)"
measurement_kind = "TD50"
reading = "548 mg/kg"

[[record]]
molecule = "O=C1CC(c2ccccc2Br)n2nccc2N1 (stereo not drawn)"
measurement_kind = "TD50"
reading = "132 mg/kg"

[[record]]
molecule = "O=C1CC(c2ccccc2F)n2nccc2N1 (stereo not drawn)"
measurement_kind = "TD50"
reading = "118 mg/kg"

[[record]]
molecule = "O=C1CC(c2ccccc2F)n2ncnc2N1 (stereo not drawn)"
measurement_kind = "TD50"
reading = "456 mg/kg"

[[record]]
molecule = "O=C1CC(c2cccc(Cl)c2)n2ncnc2N1 (stereo not drawn)"
measurement_kind = "TD50"
reading = "528 mg/kg"

[[record]]
molecule = "O=C1CC(c2cccc(C(F)(F)F)c2)n2ncnc2N1 (stereo not drawn)"
measurement_kind = "TD50"
reading = "158 mg/kg"

